System: U937 cells (human monocytic cell line)
Experiment: Pam2CSK4-induced TNF-α secretion inhibition in PMA-differentiated U937 cells
Type: cell-based
Conditions: U-937, U937 cells differentiated with PMA, read-out: TNF-α production inhibition grade (IC50)
pIC50: −log10 of the molar value.
Catalogue of pIC50 readings, one per entry.

C[C@H](CCC(=O)N[C@H](Cc1ccccc1)CS(=O)(=O)O)[C@H]1CC[C@H]2[C@@H]3CC[C@@H]4CC(=O)CC[C@]4(C)[C@H]3CC[C@]12C | > 6.30
CC[C@H]1[C@@H](O)[C@@H]2[C@H](CC[C@]3(C)[C@@H]([C@H](C)CCC(=O)N[C@H](CS(=O)(=O)O)c4ccccc4)CC[C@@H]23)[C@@]2(C)CC[C@@H](O)C[C@@H]12 | > 6.30

Prompt line: Query (compound): C[C@H](CCC(=O)N1CCC[C@H](S(=O)(=O)O)C1)[C@H]1CC[C@H]2[C@@H]3CC[C@@H]4C[C@H](O)CC[C@]4(C)[C@H]3C[C@H](O)[C@]12C ; field requested: pIC50
Response line: 5.70 to 6.00

* * *

Tested on: U937 cells (human monocytic cell line)
Test: BzATP-induced IL-1β secretion inhibition in PMA-differentiated U937 cells
Format: cell-based
Conditions: U-937, U937 cells differentiated with PMA, read-out: IL-1β production inhibition grade (IC50)
Collected IC50 values appear next to each entry.

// below: answered compounds
C[C@H](CCC(=O)NCCOS(=O)(=O)O)[C@H]1CC[C@H]2[C@@H]3CC[C@@H]4C[C@H](O)CC[C@]4(C)[C@H]3C[C@H](O)[C@]12C | < 50 nM
C[C@H](CCC(=O)N(C)CCS(=O)(=O)O)[C@H]1CC[C@H]2[C@@H]3CC[C@@H]4CC(=O)CC[C@]4(C)[C@H]3CC[C@]12C | ≥ 200 nM

Prompt line: # IC50 lookup, item CC(C)C[C@@H](CS(=O)(=O)O)NC(=O)CC[C@@H](C)[C@H]1CC[C@H]2[C@@H]3CC[C@@H]4C[C@H](O)CC[C@]4(C)[C@H]3C[C@H](O)[C@]12C
Response line: 50 to 100 nM

Prompt line: Would you mind telling me what IC50 value was observed for C[C@H](CCC(=O)N(CCS(=O)(=O)O)c1ccccc1)[C@H]1CC[C@H]2[C@@H]3CC[C@@H]4C[C@H](O)CC[C@]4(C)[C@H]3CC[C@]12C ?
Response line: 100 to 200 nM

Prompt line: // returns reported IC50 for input C[C@H](CCC(=O)N[C@H](CS(=O)(=O)O)c1ccccc1)[C@H]1CC[C@H]2[C@@H]3CC[C@@H]4C[C@H](O)CC[C@]4(C)[C@H]3CC[C@]12C
Response line: < 50 nM

Prompt line: Reported IC50 for C[C@H](CCC(=O)N(C)CCS(=O)(=O)O)[C@H]1CC[C@H]2[C@@H]3[C@H](O)C[C@@H]4C[C@H](O)CC[C@]4(C)[C@H]3C[C@H](O)[C@]12C : what is it?
Response line: < 50 nM

Prompt line: Entry CC[C@H]1[C@@H](O)[C@@H]2[C@H](C[C@H](O)[C@]3(C)[C@@H]([C@H](C)CCC(=O)N4CCC[C@H](S(=O)(=O)O)C4)CC[C@@H]23)[C@@]2(C)CC[C@@H](O)C[C@@H]12 has what IC50?
Response line: 100 to 200 nM

Prompt line: Which IC50 reading was recorded for the compound CC[C@H]1[C@@H](O)[C@@H]2[C@H](CC[C@]3(C)[C@@H]([C@H](C)CCC(=O)N[C@@H](CO)CS(=O)(=O)O)CC[C@@H]23)[C@@]2(C)CC[C@@H](O)C[C@@H]12 ?
Response line: ≥ 200 nM

Prompt line: What does the record list as IC50 for C[C@H](CCC(=O)N(CCS(=O)(=O)O)c1ccccc1)[C@H]1CC[C@H]2[C@@H]3CC[C@@H]4C[C@H](O)CC[C@]4(C)[C@H]3C[C@H](O)[C@]12C ?
Response line: 50 to 100 nM

Prompt line: Give its IC50 value. Item: C[C@H](CCC(=O)N1CC[C@@H](S(=O)(=O)O)C1)[C@H]1CC[C@H]2[C@@H]3[C@H](O)C[C@@H]4C[C@H](O)CC[C@]4(C)[C@H]3C[C@H](O)[C@]12C
Response line: 50 to 100 nM
